The origin of these recorded values is patent US20240279318A1.

- System Under Test: T1, AFP158/HLA-A*02:01 complex (human)
- T1 construct: flowed as analyte in SPR
- Protocol: SPR, crude scFv captured, pMHC analyte;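 note: pMHC analyte injected at three concentrations, association phase of one hundred seconds, then running buffer for dissociation, rates fitted from both curves, KD derived from the rates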
Result Type: Kd (nM)

Binder | Unit Spec | Numeric Result
AS170036 VL1VH1-98Q108S (scFv, also called 39-AS170036 VL1VH1-98Q108S) scFv: QSALTQPRSVSGSPGQSVTISCAGTSSDVGSENYVSWYQQHPGKAPKLMIYQVNKRASGVPDRFSGSKSGNTASLTISGLQAEDEADYYCASYRSSDQNIVFGGGTKLTVLGGGGSGGGGSGGGGSEVQLVESGGGLVQPGGSLRLSCAASGFTFSSYAMSWVRQAPGKGLEWVSTINSGTGSPYYADSVKGRFTISRDNSKNTLYLQMNSLRAEDTAVYYCAKNFFDGSWFLSPPAMDYWGQGTLVTVSSHHHHHH | nM | 27
AS170036 VL1VH1-57K108A (scFv, also called 25-AS170036 VL1VH1-57K108A) scFv: QSALTQPRSVSGSPGQSVTISCAGTSSDVGSENYVSWYQQHPGKAPKLMIYQVNKRASGVPDRFSGSKSGNTASLTISGLQAEDEADYYCASYRSSDHNIVFGGGTKLTVLGGGGSGGGGSGGGGSEVQLVESGGGLVQPGGSLRLSCAASGFTFSSYAMSWVRQAPGKGLEWVSTINSGTGKPYYADSVKGRFTISRDNSKNTLYLQMNSLRAEDTAVYYCAKNFFDGSWFLAPPAMDYWGQGTLVTVSSHHHHHH | nM | 10
AS170036 VL1VH1-98F108A (scFv, also called 31-AS170036 VL1VH1-98F108A) scFv: QSALTQPRSVSGSPGQSVTISCAGTSSDVGSENYVSWYQQHPGKAPKLMIYQVNKRASGVPDRFSGSKSGNTASLTISGLQAEDEADYYCASYRSSDFNIVFGGGTKLTVLGGGGSGGGGSGGGGSEVQLVESGGGLVQPGGSLRLSCAASGFTFSSYAMSWVRQAPGKGLEWVSTINSGTGSPYYADSVKGRFTISRDNSKNTLYLQMNSLRAEDTAVYYCAKNFFDGSWFLAPPAMDYWGQGTLVTVSSHHHHHH | nM | 12
